Can you tell me pIC50 for the items I'm about to list?
target: HLA-DRB1*01:01 (plate-bound, peptide-binding assays) (human); test: competition peptide-binding assay on plates
Square brackets hold non-standard residues; d marks the D form. Ends that are not written are not given here. Cit = NC(=O)NCCC[C@H](N)C(=O)O
Give bare numbers, as −log10 of the molar value.

For orientation, consider the following solved cases.
TSKGLF[Cit]AAVPSGAS [α-enolase peptide Cit26 (residues 26–40), citrullinated] = 5.72
VIGMDVAASEFF[Cit]SG [α-enolase peptide Cit241 (residues 241–255), citrullinated] = 4.38
TSKGLFRAAVPSGAS [α-enolase peptide 26 (residues 26–40), native] = 5.85

We now examine a further binder.
So for MSILKIHAREIFDSR [α-enolase peptide 1 (residues 1–15), native] , the logged pIC50 turned out to be 5.46
